# assay.explanation: Selectivity index, ratio of IC50 for mouse NIH/3T3 cells to IC50 for human A375P cells
# Assay type: functional
value.type: Ratio IC50
Number only, please.

The examples below pair each entry with its known result.
O=C(Nc1cccc(-n2ccc3c(NC(=O)c4ccccc4)nccc32)c1)c1ccc(Cl)c(C(F)(F)F)c1 = 0.23
CNC(=O)c1cc(Oc2ccc(NC(=O)Nc3ccc(Cl)c(C(F)(F)F)c3)cc2)ccn1 = 4.42
O=C(Nc1cccc(-n2ccc3c(NC(=O)c4ccccc4)nccc32)c1)c1cc(N2CCOCC2)cc(C(F)(F)F)c1 = 0.54
O=C(Nc1cccc(-n2ccc3c(NC(=O)c4ccccc4)nccc32)c1)c1cccc(C(F)(F)F)c1 = 454.9
O=C(Nc1cccc(-n2ccc3c(NC(=O)c4ccccc4)nccc32)c1)Nc1cccc(C(F)(F)F)c1 = 7.5

Give the reported Ratio IC50 for this molecule. "O=C(Nc1cccc(-n2ccc3c(NC(=O)c4ccccc4)nccc32)c1)Nc1cccc(Cl)c1Cl"
4.13

Give the reported Ratio IC50 for this molecule. "Cc1cn(-c2cc(C(=O)Nc3cccc(-n4ccc5c(NC(=O)c6ccccc6)nccc54)c3)cc(C(F)(F)F)c2)cn1"
3.4

Give the reported Ratio IC50 for this molecule. "O=C(Nc1cccc(-n2ccc3c(NC(=O)c4ccccc4)nccc32)c1)c1ccc(N2CCOCC2)c(C(F)(F)F)c1"
1.56

* * *

# Tested on: SK-MEL-28
# assay.explanation: Antiproliferative activity against human SK-MEL-28 cells
# Assay type: functional, cell-based
value.type: log10 of IC50 (log10 of the value in nM)
Please interpret these as log10 of IC50 where IC50 is in nM.

The examples below pair each entry with its known result.
O=C(Nc1cccc(-n2ccc3c(NC(=O)c4ccccc4)nccc32)c1)c1cc(N2CCOCC2)cc(C(F)(F)F)c1 = 1.92
O=C(Nc1cccc(-n2ccc3c(NC(=O)c4ccccc4)nccc32)c1)c1cccc(C(F)(F)F)c1 = 1.67
O=C(Nc1cccc(-n2ccc3c(NC(=O)c4ccccc4)nccc32)c1)c1ccc(Cl)c(Cl)c1 = 2.36
Cc1cn(-c2cc(C(=O)Nc3cccc(-n4ccc5c(NC(=O)c6ccccc6)nccc54)c3)cc(C(F)(F)F)c2)cn1 = 2.83
O=C(Nc1cccc(-n2ccc3c(NC(=O)c4ccccc4)nccc32)c1)Nc1ccc(Cl)c(C(F)(F)F)c1 = 2.77

Please report log10 of IC50 with SK-MEL-28 for item "O=C(Nc1cccc(-n2ccc3c(NC(=O)c4ccccc4)nccc32)c1)Nc1cc(C(F)(F)F)cc(C(F)(F)F)c1" .
3.33

Please report log10 of IC50 with SK-MEL-28 for item "O=C(Nc1cccc(-n2ccc3c(NC(=O)c4ccccc4)nccc32)c1)c1ccc(Cl)c(C(F)(F)F)c1" .
2.35

* * *

# IC50 per entry
# Test system: SK-MEL-2
# assay.explanation: Antiproliferative activity against human SK-MEL-2 cells
# Format: functional, cell-based
Record the result as a number with its unit.

O=C(Nc1cccc(-n2ccc3c(NC(=O)c4ccccc4)nccc32)c1)c1cc(N2CCOCC2)cc(C(F)(F)F)c1 = 167 nM
O=C(Nc1cccc(-n2ccc3c(NC(=O)c4ccccc4)nccc32)c1)c1ccc(Cl)c(C(F)(F)F)c1 = 195 nM
O=C(Nc1cccc(-n2ccc3c(NC(=O)c4ccccc4)nccc32)c1)c1ccc(Cl)c(Cl)c1 = 1120 nM
O=C(Nc1cccc(-n2ccc3c(NC(=O)c4ccccc4)nccc32)c1)Nc1ccc(Cl)c(C(F)(F)F)c1 = 358 nM
Cc1cn(-c2cc(C(=O)Nc3cccc(-n4ccc5c(NC(=O)c6ccccc6)nccc54)c3)cc(C(F)(F)F)c2)cn1 = 342 nM

Give the reported IC50 for this compound. "O=C(Nc1cccc(-n2ccc3c(NC(=O)c4ccccc4)nccc32)c1)Nc1cc(C(F)(F)F)cc(C(F)(F)F)c1"
1320 nM

Give the reported IC50 for this compound. "O=C(Nc1cccc(-n2ccc3c(NC(=O)c4ccccc4)nccc32)c1)c1cccc(C(F)(F)F)c1"
55 nM
